Origin of the recorded values: ChEMBL document CHEMBL1140523

Target: hERG (KCNH2) (Homo sapiens, UniProt Q12809)
Sequence (Q12809 whole entry): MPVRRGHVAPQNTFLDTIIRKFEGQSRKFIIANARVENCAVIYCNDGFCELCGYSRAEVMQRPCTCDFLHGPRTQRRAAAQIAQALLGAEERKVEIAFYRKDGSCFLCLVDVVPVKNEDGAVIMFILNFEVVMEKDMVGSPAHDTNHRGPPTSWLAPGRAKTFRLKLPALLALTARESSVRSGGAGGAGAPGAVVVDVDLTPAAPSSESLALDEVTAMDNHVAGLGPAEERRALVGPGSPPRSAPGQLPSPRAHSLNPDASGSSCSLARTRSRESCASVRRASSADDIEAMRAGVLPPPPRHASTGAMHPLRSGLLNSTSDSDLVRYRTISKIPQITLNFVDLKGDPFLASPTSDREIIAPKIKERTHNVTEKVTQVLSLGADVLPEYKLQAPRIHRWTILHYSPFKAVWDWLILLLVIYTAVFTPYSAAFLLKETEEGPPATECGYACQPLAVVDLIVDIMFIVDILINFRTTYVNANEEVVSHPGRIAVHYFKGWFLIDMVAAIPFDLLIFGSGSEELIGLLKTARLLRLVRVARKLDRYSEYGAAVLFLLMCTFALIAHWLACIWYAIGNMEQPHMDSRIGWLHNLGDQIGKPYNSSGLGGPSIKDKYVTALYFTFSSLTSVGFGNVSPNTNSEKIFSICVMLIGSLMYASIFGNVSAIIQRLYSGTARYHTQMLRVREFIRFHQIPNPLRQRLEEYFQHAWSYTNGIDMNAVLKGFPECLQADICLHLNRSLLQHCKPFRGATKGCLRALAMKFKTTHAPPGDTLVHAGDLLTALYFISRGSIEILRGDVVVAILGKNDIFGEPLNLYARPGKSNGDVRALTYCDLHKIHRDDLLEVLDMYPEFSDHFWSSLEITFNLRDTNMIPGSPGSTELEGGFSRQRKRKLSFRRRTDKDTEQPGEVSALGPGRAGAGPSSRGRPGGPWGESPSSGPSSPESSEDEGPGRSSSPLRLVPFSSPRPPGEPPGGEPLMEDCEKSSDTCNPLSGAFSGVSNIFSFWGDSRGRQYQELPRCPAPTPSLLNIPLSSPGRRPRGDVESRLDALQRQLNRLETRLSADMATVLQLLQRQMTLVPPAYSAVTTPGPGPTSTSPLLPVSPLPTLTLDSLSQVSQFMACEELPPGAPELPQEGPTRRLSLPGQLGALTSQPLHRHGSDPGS
Assay: Displacement of [35S]MK-0499 from hERG at 10 uM
Details: probe [35S]MK-0499
Use 20% as the dividing line for inhibition at 10 µM, with the line itself on the Satisfied side and lower values as Not satisfied.

                              line_notation  classification
0  CC(C)N1C(=O)[C@H](NC(=O)[C@@H](Cc2ccccc2OC(F)(F)F)NC(=O)c2ccccn2)CCc2ccccc21       Satisfied

Quick check, inhibition at 10 µM >= 20%? CC(C)N1C(=O)[C@H](NC(=O)[C@@H](Cc2ccccc2OC(F)(F)F)NC(=O)c2ccc(C(F)(F)F)cc2)CCc2ccccc21
Satisfied

Quick check, inhibition at 10 µM >= 20%? CC(C)N1C(=O)[C@H](NC(=O)[C@@H](Cc2ccccc2OC(F)(F)F)NC(=O)C(C)(C)C)CCc2ccccc21
Not satisfied

Quick check, inhibition at 10 µM >= 20%? CC(C)N1C(=O)[C@H](NC(=O)[C@@H](Cc2cc(F)ccc2F)NC(=O)c2ccc(F)cc2C(F)(F)F)CCc2cc(Cl)ccc21
Not satisfied

Quick check, inhibition at 10 µM >= 20%? CC(C)N1C(=O)[C@H](NC(=O)[C@@H](Cc2ccccc2OC(F)(F)F)NC(=O)c2ccccc2)CCc2ccccc21
Satisfied

====

Assay: Oral bioavailability in Sprague-Dawley rat at 3 mg/kg
Format: ADME, organism-based
Settings: Sprague-Dawley, in vivo
Use 60% as the dividing line for bioavailability, with the line itself on the label 1 side and lower values as label 0.

>>> df
                              line_notation  classification
0  CC(C)N1C(=O)[C@H](NC(=O)[C@@H](Cc2c(Cl)cccc2Cl)NC(=O)c2ccc(F)cc2C(F)(F)F)CCc2cc(Cl)ccc21         label 1
1  CC(C)N1C(=O)[C@H](NC(=O)[C@@H](Cc2ccccc2OC(F)(F)F)NC(=O)c2ccc(F)cc2C(F)(F)F)CCc2ccccc21         label 1
2  CC(C)N1C(=O)[C@H](NC(=O)[C@@H](Cc2cc(F)ccc2F)NC(=O)c2ccc(F)cc2C(F)(F)F)CCc2cc(Cl)ccc21         label 0

Quick check, bioavailability >= 60%? CC(C)N1C(=O)[C@H](NC(=O)[C@@H](Cc2ccccc2OC(F)(F)F)NC(=O)OC(C)(C)C)CCc2cc(Cl)ccc21
label 0

====

Biological target: Sodium channel protein type 9 subunit alpha (Homo sapiens, UniProt Q15858)
Sequence (Q15858 whole entry): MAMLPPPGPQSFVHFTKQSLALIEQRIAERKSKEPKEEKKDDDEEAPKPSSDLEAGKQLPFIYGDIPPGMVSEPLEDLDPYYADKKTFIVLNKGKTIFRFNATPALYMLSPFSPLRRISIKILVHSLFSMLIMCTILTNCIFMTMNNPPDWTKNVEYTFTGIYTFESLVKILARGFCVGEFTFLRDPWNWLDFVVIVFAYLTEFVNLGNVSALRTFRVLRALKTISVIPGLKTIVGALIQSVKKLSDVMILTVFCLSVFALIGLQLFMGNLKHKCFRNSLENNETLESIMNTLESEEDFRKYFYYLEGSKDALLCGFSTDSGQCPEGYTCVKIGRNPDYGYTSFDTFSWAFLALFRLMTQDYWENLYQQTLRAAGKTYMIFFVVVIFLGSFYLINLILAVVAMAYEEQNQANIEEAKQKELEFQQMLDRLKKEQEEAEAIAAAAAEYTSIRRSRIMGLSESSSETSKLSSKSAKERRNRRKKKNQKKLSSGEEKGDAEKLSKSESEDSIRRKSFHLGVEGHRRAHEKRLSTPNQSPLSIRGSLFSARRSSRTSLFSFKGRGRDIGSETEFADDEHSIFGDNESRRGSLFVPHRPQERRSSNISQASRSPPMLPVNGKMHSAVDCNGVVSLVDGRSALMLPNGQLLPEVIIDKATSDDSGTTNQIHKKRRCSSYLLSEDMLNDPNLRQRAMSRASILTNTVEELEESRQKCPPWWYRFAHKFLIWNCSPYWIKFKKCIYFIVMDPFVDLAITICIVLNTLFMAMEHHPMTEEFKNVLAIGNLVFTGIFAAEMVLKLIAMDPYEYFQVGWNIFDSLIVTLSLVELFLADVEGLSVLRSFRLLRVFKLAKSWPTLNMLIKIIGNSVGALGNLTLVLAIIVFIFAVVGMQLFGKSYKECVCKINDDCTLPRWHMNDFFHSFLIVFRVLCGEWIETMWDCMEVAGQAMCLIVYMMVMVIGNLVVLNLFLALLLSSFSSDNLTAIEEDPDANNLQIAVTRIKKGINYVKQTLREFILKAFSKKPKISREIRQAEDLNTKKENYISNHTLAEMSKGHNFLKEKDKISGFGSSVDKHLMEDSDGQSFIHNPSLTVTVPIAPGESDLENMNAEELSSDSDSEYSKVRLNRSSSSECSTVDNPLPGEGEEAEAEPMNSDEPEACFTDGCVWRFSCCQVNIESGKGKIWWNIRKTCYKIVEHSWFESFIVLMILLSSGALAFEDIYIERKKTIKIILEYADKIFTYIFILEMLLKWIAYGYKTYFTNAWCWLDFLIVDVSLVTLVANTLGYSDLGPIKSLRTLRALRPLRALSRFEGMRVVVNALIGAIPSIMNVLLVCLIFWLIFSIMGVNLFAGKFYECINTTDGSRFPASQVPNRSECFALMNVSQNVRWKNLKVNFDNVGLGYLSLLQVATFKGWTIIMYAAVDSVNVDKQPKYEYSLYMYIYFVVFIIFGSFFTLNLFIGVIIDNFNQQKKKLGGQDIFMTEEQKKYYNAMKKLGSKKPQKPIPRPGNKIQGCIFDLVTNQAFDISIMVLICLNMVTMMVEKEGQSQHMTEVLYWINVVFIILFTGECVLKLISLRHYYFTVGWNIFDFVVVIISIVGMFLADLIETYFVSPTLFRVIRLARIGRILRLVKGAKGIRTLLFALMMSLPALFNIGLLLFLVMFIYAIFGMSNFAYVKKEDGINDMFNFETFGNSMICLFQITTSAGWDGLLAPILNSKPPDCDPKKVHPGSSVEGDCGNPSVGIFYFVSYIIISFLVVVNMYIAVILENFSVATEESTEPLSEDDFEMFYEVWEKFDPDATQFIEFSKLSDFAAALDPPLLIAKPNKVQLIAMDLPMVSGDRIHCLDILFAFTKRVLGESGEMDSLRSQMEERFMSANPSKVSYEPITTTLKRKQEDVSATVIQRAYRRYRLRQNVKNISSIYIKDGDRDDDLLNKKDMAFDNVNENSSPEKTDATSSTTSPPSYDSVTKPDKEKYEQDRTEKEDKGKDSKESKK
Test: Inhibition of human sodium channel Nav1.7 by FRET assay
Property name: log10(IC50) (log10 of the value in nM)
In our notation, the value equals log10 of IC50 in nM.

Consider the worked cases shown below.
>>> print(df.to_string())
                                   molecule  experimental_result
0  CC(C)N1C(=O)[C@H](NC(=O)[C@@H](Cc2cc(F)ccc2F)NC(=O)c2ccc(F)cc2C(F)(F)F)CCc2cc(Cl)ccc21                 2.37
1  CC(C)N1C(=O)[C@H](NC(=O)[C@@H](Cc2ccccc2OC(F)(F)F)NC(=O)OC(C)(C)C)CCc2cc(Cl)ccc21                 2.03
2  CC(C)N1C(=O)[C@H](NC(=O)[C@@H](Cc2ccccc2OC(F)(F)F)NC(=O)c2ccc(C(F)(F)F)cc2)CCc2ccccc21                 2.24
3  CC(C)N1C(=O)[C@H](NC(=O)[C@@H](Cc2ccccc2OC(F)(F)F)NC(=O)C(C)(C(F)(F)F)C(F)(F)F)CCc2ccccc21                 2.31
4  CC(C)N1C(=O)C(NC(=O)[C@@H](Cc2ccccc2OC(F)(F)F)NC(=O)OC(C)(C)C)CCc2cccnc21 (stereo in doubt; 24)                 1.90

Give measured log10(IC50) for every item shown.
1. CC(C)N1C(=O)[C@H](NC(=O)[C@@H](Cc2ccccc2OC(F)(F)F)NC(=O)c2ccc(F)cc2C(F)(F)F)CCc2cc(Cl)ccc21
2. CC(C)N1C(=O)[C@H](NC(=O)[C@@H](Cc2ccccc2OC(F)(F)F)NC(=O)c2ccccn2)CCc2ccccc21
3. CC(C)N1C(=O)[C@H](NC(=O)[C@@H](Cc2ccccc2OC(F)(F)F)NC(=O)C(F)(F)F)CCc2ccccc21

1. 2.23
2. 2.25
3. 2.94

====

Hi there, I'd appreciate the recorded clearance for every entry that follows.
Experiment: Plasma clearance in Sprague-Dawley rat at 1 mg/kg, iv or 3 mg/kg, po
Type: ADME, organism-based
One number for each entry, in mL/min/kg.

Consider the worked cases shown below.
>>> print(df.to_string())
                              line_notation  unit_name  experimental_result
0  CC(C)N1C(=O)[C@H](NC(=O)[C@@H](Cc2ccccc2OC(F)(F)F)NC(=O)c2ccc(F)cc2C(F)(F)F)CCc2cc(Cl)ccc21  mL/min/kg                   29
1  CC(C)N1C(=O)[C@H](NC(=O)[C@@H](Cc2ccccc2OC(F)(F)F)NC(=O)c2ccc(F)cc2C(F)(F)F)CCc2ccccc21  mL/min/kg                   51

Turning now to a further record.
Entry under review: CC(C)N1C(=O)[C@H](NC(=O)[C@@H](Cc2ccccc2OC(F)(F)F)NC(=O)c2ccccc2)CCc2ccccc21 . Reported clearance?
43

====

Hi there, I'd appreciate the recorded pIC50 for every entry that follows.
Target: Sodium channel protein type 9 subunit alpha (Homo sapiens, UniProt Q15858)
Assay: Inhibition of human sodium channel Nav1.7 by FRET assay
Answers are plain numbers, as −log10 of the molar value.

>>> print(df.to_string())
                                   molecule  property_name  experimental_result
0  CC(C)N1C(=O)C(NC(=O)[C@@H](Cc2ccccc2OC(F)(F)F)NC(=O)OC(C)(C)C)CCc2cccnc21 (stereo in doubt; 25)          pIC50                 7.10
1  CC(C)N1C(=O)[C@H](NC(=O)[C@@H](Cc2c(F)cccc2F)NC(=O)c2ccc(F)cc2C(F)(F)F)CCc2cc(Cl)ccc21          pIC50                 6.54
2  CC(C)N1C(=O)[C@H](NC(=O)[C@@H](Cc2ccccc2OC(F)(F)F)NC(=O)c2ccc(F)cc2C(F)(F)F)CCc2ccccc21          pIC50                 6.89
3  CC(C)N1C(=O)[C@H](NC(=O)[C@@H](Cc2cccc(F)c2F)NC(=O)c2ccc(F)cc2C(F)(F)F)CCc2cc(Cl)ccc21          pIC50                 6.84
4  CC(C)N1C(=O)[C@H](NC(=O)[C@@H](Cc2ccccc2F)NC(=O)c2ccc(F)cc2C(F)(F)F)CCc2cc(Cl)ccc21          pIC50                 7.52

Give measured pIC50 for every item shown.
1. CC(C)N1C(=O)[C@H](NC(=O)[C@@H](Cc2ccccc2OC(F)(F)F)NC(=O)C(C)(C)C)CCc2ccccc21
2. CC(C)N1C(=O)[C@H](NC(=O)[C@@H](Cc2ccccc2OC(F)(F)F)NC(=O)c2ccc(F)cc2)CCc2ccccc21
3. CC(C)N1C(=O)[C@H](NC(=O)[C@@H](Cc2ccccc2OC(F)(F)F)NC(=O)OC(C)(C)C)COc2ccccc21
4. CC(C)N1C(=O)[C@H](NC(=O)[C@@H](Cc2c(Cl)cccc2Cl)NC(=O)c2ccc(F)cc2C(F)(F)F)CCc2cc(Cl)ccc21
5. CC(C)N1C(=O)[C@H](NC(=O)[C@@H](Cc2ccccc2OC(F)(F)F)NC(=O)c2ccccc2C(F)(F)F)CCc2ccccc21

6.88
7.03
7.36
6.97
7.01

Give measured pIC50 for every item shown.
1. CC(C)N1C(=O)[C@H](NC(=O)[C@@H](Cc2ccccc2OC(F)(F)F)NC(=O)c2ccccc2)CCc2ccccc21
2. CC(C)N1C(=O)[C@H](NC(=O)[C@@H](Cc2ccccc2OC(F)(F)F)NC(=O)c2ccncc2)CCc2ccccc21

1: 7.66; 2: 6.34

====

Hi there, I'd appreciate the recorded clearance for every entry that follows.
Assay: Plasma clearance in Sprague-Dawley rat at 1 mg/kg, iv or 3 mg/kg, po
Format: ADME, organism-based
Kindly format the answer as number then unit.

Consider the worked cases shown below.
>>> print(df.to_string())
                              line_notation  experimental_result
0  CC(C)N1C(=O)[C@H](NC(=O)[C@@H](Cc2c(Cl)cccc2Cl)NC(=O)c2ccc(F)cc2C(F)(F)F)CCc2cc(Cl)ccc21         12 mL/min/kg
1  CC(C)N1C(=O)[C@H](NC(=O)[C@@H](Cc2ccccc2OC(F)(F)F)NC(=O)OC(C)(C)C)COc2ccccc21         40 mL/min/kg

Give measured clearance for every item shown.
1. CC(C)N1C(=O)[C@H](NC(=O)[C@@H](Cc2ccccc2OC(F)(F)F)NC(=O)C(C)(C)C)CCc2ccccc21
2. CC(C)N1C(=O)[C@H](NC(=O)[C@@H](Cc2ccccc2OC(F)(F)F)NC(=O)c2ccc(F)cc2)CCc2ccccc21

1. 31 mL/min/kg
2. 66 mL/min/kg
